- Tested on: HT1080 cells
- experiment summary: Soft agar colony formation assay, MTT readout
- Format: cell-based
- study conditions: Homo sapiens, HT-1080, growth in soft agar, colonies stained with MTT, absorbance 570 nm
Counter-ions that a name gives are not always drawn.
measurement type: pIC50
Units for pIC50: none; it is -log10 of a concentration expressed in mol/L.

Ask: Could you share which pIC50 value was measured for CCN(CC)CCCC(C)Nc1c2ccc(Cl)cc2nc2ccc(OC)cc12 (stereo not shown) [Quinacrine dihydrochloride hydrate, hydrate;dihydrochloride] ?
Reply: 3.83

* * *

- Test system: HCT-116 cells
- experiment summary: Soft agar colony formation assay, MTT readout
- Format: cell-based
- study conditions: Homo sapiens, growth in soft agar, colonies stained with MTT, absorbance 570 nm
Counter-ions that a name gives are not always drawn.
measurement type: pIC50
As a rule, pIC50 stands for the negative log10 of the concentration, concentration in M.

Ask: Name the reported pIC50 value associated with the compound CCN(CC)CCCC(C)Nc1c2ccc(Cl)cc2nc2ccc(OC)cc12 (stereo not shown) [Quinacrine dihydrochloride hydrate, hydrate;dihydrochloride]
Reply: 5.26
